Cited source for all entries: patent US20210147523A1

# target under test: T1, mouse SPNS2 (mouse, UniProt Q91VM4 1-549)
# T1 construct: on Flp-in 293 cells that also express human SphK1
# T1 sequence: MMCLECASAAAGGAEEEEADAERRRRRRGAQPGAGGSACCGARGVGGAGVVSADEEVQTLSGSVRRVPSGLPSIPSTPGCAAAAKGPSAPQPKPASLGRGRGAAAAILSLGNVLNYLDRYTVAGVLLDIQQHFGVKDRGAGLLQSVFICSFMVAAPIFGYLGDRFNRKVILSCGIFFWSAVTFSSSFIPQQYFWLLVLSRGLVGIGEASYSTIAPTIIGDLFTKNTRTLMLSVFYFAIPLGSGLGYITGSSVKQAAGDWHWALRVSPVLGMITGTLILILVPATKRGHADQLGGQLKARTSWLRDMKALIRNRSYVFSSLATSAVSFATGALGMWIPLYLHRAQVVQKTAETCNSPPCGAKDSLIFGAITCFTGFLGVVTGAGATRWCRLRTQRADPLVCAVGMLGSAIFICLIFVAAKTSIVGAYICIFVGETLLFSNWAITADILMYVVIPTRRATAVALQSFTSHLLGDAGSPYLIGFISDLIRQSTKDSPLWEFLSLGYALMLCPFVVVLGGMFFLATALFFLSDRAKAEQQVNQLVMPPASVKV
# assay explanation: Cell ELISA

binder	pEC50
53-0707E (antibody, IgG2b, V domains shown) VH: EVQLQQSGAELVRPRTSVKLSCKVSGDSITRYYVHFVKQRPGQGLEWIGRIDPEDDTTKYSEKFKKKATLTADASSNTAYLIFSGLTSEDTATYFCSTLTGLDYWGQGVMVTVSS VL: DIQMTQSPPVLSTSVGDRVTLRCKASQNVHSKLDWYQQKHGEAPKLLIYYTHNLQTGIPSRFSGSGSGTDYTLTISSLQPEDVATYYCFQYYSGWTFGGGTKLEMKR	7.82 pEC50 (M)
33-0503E (antibody, IgG2b, V domains shown) VH: EVQLVESGGGLVRPGGSMKLSCGASGFIFDNYYMTWVRQAPTKGLEWVASISSSGGNTYYRDSVRGRFTISRDNAGNTLSLQMGSLRAEDTATYHCAKEGYRGRYFDYWGQGVMVTVSS VL: QVVLTQPNSVSTNLGSTVKLSCKRTTGNIGSNYVNWYQQHEGRSPTTMIYRDDERPDGVPDRFSGSIDRSSNSALLTINNVQTEDEAEYFCQSYSSGIIFGGGTKLTVL	7.66 pEC50 (M)
94-1311E (antibody, V domains shown) VH: EVQLQQSGAGLVRPRTSVRLSCKISGDSITAYYVHFVKQRPGQGLEWIGRIDPEDDSTKYSEKFKNKATLTADVSSSTAYLILSSLTSDDSATYFCSTLTGLDYWGQGVMVTVSS VL: DIQMTQSPPVLSASVGDRVTLSCKASQSVHNKLDWYQQKHGEAPKLLIYYTHNLQTGIPSRFSGSGSGSDYTLTISSLRAEDVATYYCFQYYSGWTFGGGTKLEMKR	8.2 pEC50 (M)
37-0511F (antibody, IgG2b, V domains shown) VH: EVHLQQSGAALVRPRASVKLSCKVSGDSISRYYVHFVKQRPGQGLEWIGRIDPEDDTTKYSEKFKNRATLTADASSDTASLILSGLTSDDTATYFCSTLTGLDYWGQGVMVTVSS VL: DIQMTQSPPVLSTSVGDRVTLRCKPSQNVHSKLDWYQQKHGEAPKLLIYYTHNLQTGIPSRFSGSGSGTDYTLTISSLQPEDVATYYCFQYYSGWTFGGGTKLEMKR	8.01 pEC50 (M)
84-1111F (antibody, IgG2b, V domains shown) VH: EVQVVESGGGLVQPGRSMKLSCAALGFTFRDYYMAWVRQTPTKGLEWVAAISTGGGNTYYRDSVKGRFTISRDNAKSTLYLKMDSLRSDDTATYYCARNPYGNYFDYWGQGVMVTVSS VL: QFVLSQPNSVSTNLGSTVKLSCKRSTGNIGSNYVHWYQRHEGRSPTTMIYRDDKRPNGVPDRFSGSIDRSSNSALLTINNVQTEDEADYFCQSYSGGMYLFGGGTTLTVL	8.65 pEC50 (M)
